assayed_system: Angiotensin-converting enzyme (Oryctolagus cuniculus, UniProt P12822)
Sequence (P12822 whole entry): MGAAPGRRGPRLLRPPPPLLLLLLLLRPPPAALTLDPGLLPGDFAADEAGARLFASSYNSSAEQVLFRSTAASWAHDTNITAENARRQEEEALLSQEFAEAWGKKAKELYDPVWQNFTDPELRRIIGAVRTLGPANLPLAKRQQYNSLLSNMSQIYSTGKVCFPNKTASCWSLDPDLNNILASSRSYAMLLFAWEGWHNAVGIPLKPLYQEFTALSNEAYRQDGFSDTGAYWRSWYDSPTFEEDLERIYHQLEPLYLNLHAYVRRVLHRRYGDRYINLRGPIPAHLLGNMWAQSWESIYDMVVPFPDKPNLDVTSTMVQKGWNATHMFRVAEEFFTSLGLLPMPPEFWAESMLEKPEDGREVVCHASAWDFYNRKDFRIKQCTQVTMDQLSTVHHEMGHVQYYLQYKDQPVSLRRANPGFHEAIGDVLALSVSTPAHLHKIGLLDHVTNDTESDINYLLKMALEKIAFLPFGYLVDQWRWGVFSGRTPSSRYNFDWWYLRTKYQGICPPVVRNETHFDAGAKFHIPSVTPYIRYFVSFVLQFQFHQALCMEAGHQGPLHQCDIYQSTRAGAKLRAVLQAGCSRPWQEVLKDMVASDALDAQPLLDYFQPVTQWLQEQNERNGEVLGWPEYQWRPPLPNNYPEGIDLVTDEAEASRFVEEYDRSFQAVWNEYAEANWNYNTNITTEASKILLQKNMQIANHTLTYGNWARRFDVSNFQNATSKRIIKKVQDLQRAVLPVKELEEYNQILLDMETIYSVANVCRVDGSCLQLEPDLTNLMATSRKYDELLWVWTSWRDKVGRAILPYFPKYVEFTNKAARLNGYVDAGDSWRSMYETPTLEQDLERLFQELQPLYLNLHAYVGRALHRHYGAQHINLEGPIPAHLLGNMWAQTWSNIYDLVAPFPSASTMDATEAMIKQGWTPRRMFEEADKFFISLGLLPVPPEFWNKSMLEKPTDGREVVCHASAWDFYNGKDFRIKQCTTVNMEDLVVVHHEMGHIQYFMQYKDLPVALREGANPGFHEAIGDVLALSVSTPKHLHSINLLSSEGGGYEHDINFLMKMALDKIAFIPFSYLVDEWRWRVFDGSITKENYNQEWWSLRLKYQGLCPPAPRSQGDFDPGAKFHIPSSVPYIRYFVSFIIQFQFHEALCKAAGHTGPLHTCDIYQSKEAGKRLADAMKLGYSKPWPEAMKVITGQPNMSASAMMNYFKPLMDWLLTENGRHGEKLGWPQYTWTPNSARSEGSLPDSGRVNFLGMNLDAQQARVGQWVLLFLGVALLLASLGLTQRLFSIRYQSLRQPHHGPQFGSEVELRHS
pKi: −log10 of the molar value.
// cross-study collection: pKi for Angiotensin-converting enzyme (Oryctolagus cuniculus, UniProt P12822)

Known pKi results, listed for orientation:
In: Fill blank: measured pKi of the compound O=C(O)CC1(C(=O)NCc2ccc3ccccc3n2)Cc2ccccc2C1 is ____.
Out: < 4.24

In: Quick check: pKi of Cn1cc(CNC(=O)C2(CC(=O)O)Cc3ccccc3C2)cn1 ?
Out: < 4.24

In: // query pKi value for entry O=C(O)CC1(C(=O)NCCc2cc3ccccc3[nH]2)Cc2ccccc2C1
Out: < 4.24

Could you report pKi for every entry in the following list?
1. O=C(O)[C@@H]1CCCN1C(=O)CP(=O)(O)CCCCc1ccccc1
2. O=C(O)CC1(C(=O)NCc2cc3ccccc3o2)Cc2ccccc2C1
3. O=C(N[C@H]1Cc2ccccc2[C@H]2CCC[C@@H](C(=O)O)N2C1=O)[C@@H](S)Cc1ccccc1

Out:
1. 7.82
2. < 4.24
3. 9.96

For every item below, please supply its pKi.
1. O=C(CS)N[C@@H]1Cc2ccccc2C2CCC[C@H](C(=O)O)N2C1=O (stereo not given in full)
2. Cc1ccc2oc(CNC(=O)CC3(C(=O)O)Cc4ccccc4C3)cc2c1
3. O=C(O)CC1(C(=O)NCCc2nc3ccccc3s2)Cc2ccccc2C1

Out:
1: 8.70; 2: < 4.24; 3: < 4.24

In: What does the data say about its pKi? Entry: O=C(O)CC1(C(=O)NCc2nc(-c3ccccc3)cs2)Cc2ccccc2C1
Out: < 4.24
